Target: T1, human CD73 expressed at the cell surface (human, UniProt P21589 27-549)
T1 construct: GPI-anchored dimer on cells; also called huCD73; cellular CD73
T1 sequence: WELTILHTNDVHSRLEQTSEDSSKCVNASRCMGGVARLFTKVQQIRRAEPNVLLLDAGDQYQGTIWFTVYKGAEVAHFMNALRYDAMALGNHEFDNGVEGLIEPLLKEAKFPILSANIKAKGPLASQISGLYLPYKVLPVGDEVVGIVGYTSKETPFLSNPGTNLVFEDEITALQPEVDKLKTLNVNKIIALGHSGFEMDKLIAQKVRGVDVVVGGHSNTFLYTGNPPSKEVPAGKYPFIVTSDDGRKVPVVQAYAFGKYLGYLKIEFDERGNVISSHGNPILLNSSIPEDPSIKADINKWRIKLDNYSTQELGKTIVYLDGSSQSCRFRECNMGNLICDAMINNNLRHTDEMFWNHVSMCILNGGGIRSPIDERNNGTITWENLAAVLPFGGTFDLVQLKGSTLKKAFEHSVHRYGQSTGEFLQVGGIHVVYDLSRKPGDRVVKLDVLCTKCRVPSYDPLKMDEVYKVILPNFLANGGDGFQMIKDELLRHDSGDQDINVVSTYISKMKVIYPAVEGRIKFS
Assay: flow cytometry on MDA-MB-231 cells, medium (no APCP)
Exercise: for every item that follows, state its recorded EC50.
Report the figure in µg/mL without appending any unit label.

Prompt: Supply EC50 value. Item: antibody 6E1 (antibody, human IgG1, V domains shown, Produced as chimeric human IgG1 with heavy chain N297Q (Kabat EU numbering)) VH: EFQLQQSGPELVKPGASVKVSCKASGYAFTSYNMYWVKQSHGKRLEWIGYIDPYNGGSSYNQKFKGKATLTVDKSSSTAYMHLNNLTSEDSAVYYCARGYNNYKAWFAYWGQGTLVTVSA VL: SIVMTQTPKFLLVSAGDRVTITCKASQSVTNDVAWYQQKPGQSPKLLIYYASNRYTGVPDRFTGSGYGTDFTFTISTMQAEDLAVYFCQQDYSSLTFGAGTKLELK
Completion: 0.0584

Prompt: # return recorded EC50 for input antibody 11E1 (antibody, human IgG1, V domains shown, Produced as chimeric human IgG1 with heavy chain N297Q (Kabat EU numbering); also called 1E11) VH: EIQLQQSGPELVKPGASVKVSCKASGYAFTSYNMYWVKQSHGKSLEWIGYIDPYNGGTSYNQKFKGKATLTVDKSSSTAYMHLNSLTSEDSAVYYCARGYGNYKAWFAYWGQGTLVTVSA VL: DAVMTQTPKFLLVSAGDRVTITCKASQSVTNDVAWYQQKPGQSPKLLIYYASNRYTGVPDRFTGSGYGTDFTFTISTVQAEDLAVYFCQQDYSSLTFGAGTKLELK
Completion: 0.0611

Prompt: Report EC50, nothing else, for this binder: antibody 3C12 (antibody, human IgG1, V domains shown, Produced as chimeric human IgG1 with heavy chain N297Q (Kabat EU numbering); RTVAAP)) VH: QIQLQQSGPELVKPGASVKVSCKASGYAFASYNMNWVKQSHGKSLDWIGYIDPYNGGSSYNLTFKGKATLTVDKSSTTAYMHLNSLTSEDSAVYYCARGYGNYKAWFAYWGQGTLVTVSA VL: DVVMTQTPKFLLVSAGDRVTITCKASQSVSNDVAWYQQKPGQSPKLLIYYASTRYTGVPDRFTGSGYGTDFTFTISTVQAEDLAVYFCQQDYSSLTFGAGTKLELKR
Completion: 0.0572

Prompt: Note down EC50 recorded for antibody AD2 (Biolegend, product ref. 344004) (antibody, V domains shown) VH: EVQLQQSGAELVKPGASVKLSCTASGFNIKDTYIHWVKQRPEQGLEWIGRIDPATGNTEYDPKFQGKATITADTSSNTAYLHLSSLTSEDTAVYYCARGYYGSSYPPWFAYWGQGTLVTVS VL: DIVMTQSHKFMSTSVGDRVSITCKASQDVGSAVAWYQQKPGQSPKLLIYWASTRHTGVPDRFTGSGSGTDFTLTISNVQSEDLADYFCQQYSSYPLTFGAGTKLELK
Completion: 0.0629

Prompt: For the binder antibody 8C7 (antibody, human IgG1, V domains shown, Produced as chimeric human IgG1 with heavy chain N297Q (Kabat EU numbering); RTVAAP)) VH: EVQLQQSGPELVKPGASVKVSCKASGYAFASYNMNWVKQSHGKSLDWIGYIDPYNGGSSYNLTFKGKATLTVDKSSTTAYMHLNSLTSEDSAVYYCARGYGNYKAWFAYWGQGTLVTVSA VL: SIVMTPTPKFLLVSAGDRVTITCKASQSVSNDVAWYQQKPGQSPKLLIYYASTRYTGVPDRFTGSGYGTDFTFTISTVQAEDLAVYFCQQDYSSLTFGAGTKLELKR , report EC50.
Completion: 0.0903
